target: SMARCA2-HiBiT (Homo sapiens); construct: SMARCA2-HiBiT knock-in Hela monoclonal cell (CS302366); host or cells: HeLa monoclonal knock-in line (CRISPR HiBiT knock-in at the endogenous locus, heterozygous); test: SMARCA2 HiBiT degradation assay in HeLa cells; format: cell-based; conditions: HeLa, 18 hours incubation, read-out: HeLa-HiBit-SM2 Dmax (%)
Measured quantity: Dmax

1. CN1CCN(c2ccc3c(c2)C(=O)N(C2CCC(=O)NC2=O)C3=O)CC1CN1C[C@@H]2[C@H](C1)[C@H]2CN1CCN2c3cc(-c4ccccc4O)nnc3NC[C@H]2C1 (stereo partly drawn) [Example 56] : 50 to 75%
2. O=C1CCC(N2Cc3ccc(N4CCC(CN5Cc6cnc(N7CCN8c9cc(-c%10ccccc%10O)nnc9NC[C@H]8C7)nc6C5)CC4)cc3C2=O)C(=O)N1 (stereo partly drawn) [Example 61] : ≤ 50%

Now look at this one.
Lookup: Please supply the value of reported Dmax for the item CC1CN(CC2CCN(c3cc4c(cc3F)C(=O)N(C3CCC(=O)NC3=O)C4=O)CC2)CCC1CN1CCN2c3cc(-c4ccccc4O)nnc3NC[C@H]2C1 (stereo partly drawn) [Example 165]
Found: 75 to 85%

---

Recorded Dmax, one value per entry.
target: SMARCA2-HiBiT (Homo sapiens, UniProt P51531); construct: SMARCA2-HiBiT knock-in Hela monoclonal cell (CS302366); host or cells: HeLa monoclonal knock-in line (CRISPR HiBiT knock-in at the endogenous locus, heterozygous); experiment: SMARCA2 HiBiT degradation assay in HeLa cells; format: cell-based; settings: HeLa, 18 hours incubation, read-out: HeLa-HiBit-SM2 Dmax (%)
Sequence (P51531 whole entry): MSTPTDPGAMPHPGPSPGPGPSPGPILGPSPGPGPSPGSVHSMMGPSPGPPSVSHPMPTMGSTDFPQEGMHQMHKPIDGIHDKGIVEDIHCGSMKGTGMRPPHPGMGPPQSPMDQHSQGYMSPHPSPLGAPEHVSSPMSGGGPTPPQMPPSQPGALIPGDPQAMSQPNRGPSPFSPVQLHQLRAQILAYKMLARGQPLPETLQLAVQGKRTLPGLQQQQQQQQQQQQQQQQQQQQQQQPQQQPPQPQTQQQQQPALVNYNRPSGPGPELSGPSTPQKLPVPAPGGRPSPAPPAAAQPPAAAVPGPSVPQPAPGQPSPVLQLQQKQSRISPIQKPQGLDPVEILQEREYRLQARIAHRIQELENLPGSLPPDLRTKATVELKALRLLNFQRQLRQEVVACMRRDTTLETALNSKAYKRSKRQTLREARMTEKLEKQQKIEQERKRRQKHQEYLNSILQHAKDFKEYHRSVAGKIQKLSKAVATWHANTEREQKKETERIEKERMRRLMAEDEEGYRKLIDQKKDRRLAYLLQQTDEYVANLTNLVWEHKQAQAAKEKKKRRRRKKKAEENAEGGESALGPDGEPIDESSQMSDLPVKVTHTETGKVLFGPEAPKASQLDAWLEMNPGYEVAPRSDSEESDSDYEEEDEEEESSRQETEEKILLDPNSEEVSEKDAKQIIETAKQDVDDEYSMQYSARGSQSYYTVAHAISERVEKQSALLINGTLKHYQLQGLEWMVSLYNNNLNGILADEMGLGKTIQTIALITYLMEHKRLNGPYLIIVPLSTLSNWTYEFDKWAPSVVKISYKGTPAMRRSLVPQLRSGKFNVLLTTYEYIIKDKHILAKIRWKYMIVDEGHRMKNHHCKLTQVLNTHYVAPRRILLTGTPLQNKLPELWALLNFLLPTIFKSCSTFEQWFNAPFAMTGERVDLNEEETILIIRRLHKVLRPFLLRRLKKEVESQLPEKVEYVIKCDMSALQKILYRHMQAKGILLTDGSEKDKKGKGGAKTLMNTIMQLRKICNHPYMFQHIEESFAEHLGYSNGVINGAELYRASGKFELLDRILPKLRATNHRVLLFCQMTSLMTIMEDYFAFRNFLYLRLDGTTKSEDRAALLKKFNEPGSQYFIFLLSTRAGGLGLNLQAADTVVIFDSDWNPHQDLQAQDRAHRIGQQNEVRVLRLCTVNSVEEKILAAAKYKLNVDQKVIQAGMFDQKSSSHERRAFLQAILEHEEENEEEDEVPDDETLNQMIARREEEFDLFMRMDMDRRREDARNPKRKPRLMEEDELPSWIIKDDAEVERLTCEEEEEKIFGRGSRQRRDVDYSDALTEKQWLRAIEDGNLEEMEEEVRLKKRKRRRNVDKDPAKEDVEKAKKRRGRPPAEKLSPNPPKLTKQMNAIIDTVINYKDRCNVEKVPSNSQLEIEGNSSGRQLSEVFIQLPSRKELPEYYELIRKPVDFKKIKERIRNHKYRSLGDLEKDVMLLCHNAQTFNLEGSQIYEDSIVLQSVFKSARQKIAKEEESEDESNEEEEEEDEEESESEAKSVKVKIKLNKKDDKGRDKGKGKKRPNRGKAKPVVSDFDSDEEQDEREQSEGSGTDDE

1) O=C1CCC(N2C(=O)c3ccc(N4CCC(CNC56CC(CN7CCN8c9cc(-c%10ccccc%10O)nnc9NC[C@H]8C7)(C5)C6)CC4)cc3C2=O)C(=O)N1 (stereo partly shown) [Example 134] : 75 to 85%
2) CC1CN(CCCC2CCN(c3cccc4c3C(=O)N(C3CCC(=O)NC3=O)C4=O)CC2)CCC1N1CCN2c3cc(-c4ccccc4O)nnc3NC[C@H]2C1 (stereo partly shown) [Example 124] : 50 to 75%
3) C[C@@H]1CN(CC2CCN(c3ccc4c(c3)C(=O)N(C3CCC(=O)NC3=O)C4=O)CC2)CCN1C(=O)N1CCN2c3cc(-c4ccccc4O)nnc3NC[C@H]2C1 (stereo partly shown) [Example 115] : 50 to 75%
4) O=C1CCC(N2C(=O)c3ccc(N4C[C@@H]5CN(C6CCC(C(=O)N7CCN8c9cc(-c%10ccccc%10O)nnc9NC[C@H]8C7)CC6)C[C@H]5C4)cc3C2=O)C(=O)N1 (stereo partly shown) [Example 98] : 75 to 85%
5) O=C1CCC(N2C(=O)c3ccc(N4CC[C@@H]5CN(C6CCC(C(=O)N7CCN8c9cc(-c%10ccccc%10O)nnc9NC[C@H]8C7)CC6)C[C@H]5C4)cc3C2=O)C(=O)N1 (stereo partly shown) [Example 97] : 75 to 85%
6) O=C1CCC(N2C(=O)c3ccc(N4CC5(CC(CN6CCC(CN7CCN8c9cc(-c%10ccccc%10O)nnc9NC[C@H]8C7)CC6)C5)C4)cc3C2=O)C(=O)N1 (stereo partly shown) [Example 147] : > 85%

Lookup: Please supply the value of reported Dmax for the item O=C1CCC(N2Cc3cc(N4CC(CN5CCC(CN6CCN7c8cc(-c9ccccc9O)nnc8NC[C@H]7C6)CC5)C4)ccc3C2=O)C(=O)N1 (stereo partly shown) [Example 230]
Found: > 85%

Lookup: Please supply the value of reported Dmax for the item CC1CN(C(=O)N2CCN3c4cc(-c5ccccc5O)nnc4NC[C@H]3C2)CCN1CC1CCN(c2ccc3c(c2)C(=O)N(C2CCC(=O)NC2=O)C3)CC1 (stereo partly shown) [Example 106]
Found: > 85%

Lookup: Please supply the value of reported Dmax for the item C[C@@H]1CN(CC2CCN(c3ccc4c(c3)C(=O)N(C3CCC(=O)NC3=O)C4)CC2)CCN1C(=O)N1CCN2c3cc(-c4ccccc4O)nnc3NC[C@H]2C1 (stereo partly shown) [Example 114]
Found: > 85%

Lookup: Please supply the value of reported Dmax for the item O=C1CCC(N2C(=O)c3ccc(N4CCC(CCN5C[C@@H]6[C@H](C5)[C@H]6CN5CCN6c7cc(-c8ccccc8O)nnc7NC[C@H]6C5)CC4)cc3C2=O)C(=O)N1 (stereo partly shown) [Example 152]
Found: 50 to 75%

Lookup: Please supply the value of reported Dmax for the item O=C1CC[C@@H](N2Cc3cc(OCCN4CCC(N5CCN6c7cc(-c8ccccc8O)nnc7NC[C@H]6C5)CC4)ccc3C2=O)C(=O)N1 [Example 239]
Found: > 85%

Lookup: Please supply the value of reported Dmax for the item O=C1CCC(N2C(=O)c3ccc(N4CCC(CN5CCC(NC6CCN7c8cc(-c9ccccc9O)nnc8NCC7C6)CC5)CC4)cc3C2=O)C(=O)N1 (stereo not shown) [Example 253]
Found: 50 to 75%

Lookup: Please supply the value of reported Dmax for the item CN(CCN1CCC(N2CCN3c4cc(-c5ccccc5O)nnc4NC[C@H]3C2)CC1)C1CCN(c2ccc3c(c2)C(=O)N(C2CCC(=O)NC2=O)C3=O)CC1 (stereo partly shown) [Example 158]
Found: > 85%

---

molecular target: SMARCA4-HiBiT (Homo sapiens); construct: SMARCA4-HiBiT knock-in Hela monoclonal cell (CS3023226); host or cells: HeLa monoclonal knock-in line (CRISPR HiBiT knock-in at the endogenous locus, heterozygous); assay: SMARCA4 HiBiT degradation assay in HeLa cells; format: cell-based; settings: HeLa, 18 hours incubation, read-out: HeLa-HiBit-SM4 Dmax (%)
Measured quantity: Dmax

Sample answers from the record:
1) O=C1CCC(N2C(=O)c3ccc(N4CCC(CN5C[C@@H]6[C@H](C5)[C@H]6CN5CCN6c7cc(-c8ccccc8O)nnc7NC[C@H]6C5)CC4)cc3C2=O)C(=O)N1 (stereo partly drawn) : 50 to 75%
2) C[C@H]1CN2c3cc(-c4ccccc4O)nnc3NC[C@H]2CN1C(=O)N1CCN(CC2CCN(c3ccc4c(c3)C(=O)N(C3CCC(=O)NC3=O)C4)CC2)CC1 (stereo partly drawn) : 75 to 85%

Now look at this one.
Lookup: Please supply the value of reported Dmax for the item CN(CCN1CCC(N2CCN3c4cc(-c5ccccc5O)nnc4NC[C@H]3C2)CC1)C1CCN(c2ccc3c(c2)C(=O)N(C2CCC(=O)NC2=O)C3=O)CC1 (stereo partly drawn)
Found: > 85%

---

biological target: SMARCA4-HiBiT (Homo sapiens, UniProt P51532); construct: SMARCA4-HiBiT knock-in Hela monoclonal cell (CS3023226); host or cells: HeLa monoclonal knock-in line (CRISPR HiBiT knock-in at the endogenous locus, heterozygous); assay: SMARCA4 HiBiT degradation assay in HeLa cells; assay type: cell-based; details: HeLa, 18 hours incubation, read-out: HeLa-HiBit-SM4 Dmax (%)
Sequence (P51532 whole entry): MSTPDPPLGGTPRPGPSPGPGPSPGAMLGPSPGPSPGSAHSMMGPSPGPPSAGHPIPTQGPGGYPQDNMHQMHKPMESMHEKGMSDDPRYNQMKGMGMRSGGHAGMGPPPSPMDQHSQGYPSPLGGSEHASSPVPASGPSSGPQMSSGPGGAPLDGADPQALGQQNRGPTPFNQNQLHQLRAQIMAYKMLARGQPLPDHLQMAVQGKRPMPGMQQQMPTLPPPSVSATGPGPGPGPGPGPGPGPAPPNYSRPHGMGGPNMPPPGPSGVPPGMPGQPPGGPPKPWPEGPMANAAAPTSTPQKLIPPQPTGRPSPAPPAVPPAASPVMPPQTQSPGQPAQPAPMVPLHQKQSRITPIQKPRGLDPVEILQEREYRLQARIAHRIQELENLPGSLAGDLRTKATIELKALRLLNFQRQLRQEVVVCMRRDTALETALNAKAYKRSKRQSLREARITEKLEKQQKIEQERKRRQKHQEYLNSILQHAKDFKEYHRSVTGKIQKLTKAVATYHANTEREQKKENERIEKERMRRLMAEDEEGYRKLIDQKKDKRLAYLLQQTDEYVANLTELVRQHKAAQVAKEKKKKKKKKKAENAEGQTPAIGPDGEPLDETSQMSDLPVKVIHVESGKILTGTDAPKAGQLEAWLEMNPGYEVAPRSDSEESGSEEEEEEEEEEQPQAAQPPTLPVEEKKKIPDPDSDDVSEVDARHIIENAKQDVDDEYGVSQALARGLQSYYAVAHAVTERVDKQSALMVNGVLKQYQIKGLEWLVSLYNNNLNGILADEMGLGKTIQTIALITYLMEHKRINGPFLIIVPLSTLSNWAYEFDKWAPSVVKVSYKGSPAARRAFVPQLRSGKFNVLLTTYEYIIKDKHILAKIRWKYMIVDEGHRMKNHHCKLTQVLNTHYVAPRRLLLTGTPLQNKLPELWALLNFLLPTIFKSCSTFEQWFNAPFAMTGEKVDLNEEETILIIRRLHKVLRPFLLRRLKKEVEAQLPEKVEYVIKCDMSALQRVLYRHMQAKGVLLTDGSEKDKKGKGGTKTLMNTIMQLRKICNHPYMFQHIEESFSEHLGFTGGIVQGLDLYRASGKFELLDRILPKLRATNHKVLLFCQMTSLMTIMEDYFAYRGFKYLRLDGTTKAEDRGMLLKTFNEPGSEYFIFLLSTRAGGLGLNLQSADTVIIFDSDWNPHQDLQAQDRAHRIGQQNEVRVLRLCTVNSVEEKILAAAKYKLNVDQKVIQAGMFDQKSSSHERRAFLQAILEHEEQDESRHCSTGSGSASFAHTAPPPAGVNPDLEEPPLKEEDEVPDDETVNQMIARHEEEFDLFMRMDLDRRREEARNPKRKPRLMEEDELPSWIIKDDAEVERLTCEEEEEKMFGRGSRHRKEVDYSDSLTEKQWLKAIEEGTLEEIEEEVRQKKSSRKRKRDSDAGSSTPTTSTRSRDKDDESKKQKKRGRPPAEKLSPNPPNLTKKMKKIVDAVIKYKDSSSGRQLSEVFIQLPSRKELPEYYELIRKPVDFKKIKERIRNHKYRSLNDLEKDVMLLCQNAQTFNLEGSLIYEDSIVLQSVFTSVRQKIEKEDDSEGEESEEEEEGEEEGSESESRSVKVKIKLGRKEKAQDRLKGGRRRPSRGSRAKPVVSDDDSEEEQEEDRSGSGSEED
Measured quantity: Dmax

Lookup: Please supply the value of reported Dmax for the item O=C1CCC(N2Cc3cc(N4CCO[C@H](CN5C[C@@H]6[C@H](C5)[C@H]6CN5CCN6c7cc(-c8ccccc8O)nnc7NC[C@H]6C5)C4)ccc3C2=O)C(=O)N1 (stereo partly drawn) [Example 268]
Found: 50 to 75%

Lookup: Please supply the value of reported Dmax for the item O=C1CCC(N2C(=O)c3ccc(N4CCCC(N5CCC(CN6CCN7c8cc(-c9ccccc9O)nnc8NC[C@H]7C6)CC5)C4)cc3C2=O)C(=O)N1 (stereo partly drawn) [Example 218]
Found: 75 to 85%

Lookup: Please supply the value of reported Dmax for the item O=C1CCC(N2C(=O)c3cccc(N4CCC(CCCN5C6CCC5CC(N5CCN7c8cc(-c9ccccc9O)nnc8NC[C@H]7C5)C6)CC4)c3C2=O)C(=O)N1 (stereo partly drawn) [Example 125]
Found: 75 to 85%

---

Recorded Dmax, one value per entry.
target: SMARCA4-HiBiT (Homo sapiens, UniProt P51532); construct: SMARCA4-HiBiT knock-in Hela monoclonal cell (CS3023226); host or cells: HeLa monoclonal knock-in line (CRISPR HiBiT knock-in at the endogenous locus, heterozygous); experiment: SMARCA4 HiBiT degradation assay in HeLa cells; assay type: cell-based; settings: HeLa, 18 hours incubation, read-out: HeLa-HiBit-SM4 Dmax (%)

Lookup: Please supply the value of reported Dmax for the item O=C1CCC(N2C(=O)c3ccc(N4CCO[C@H](CN5C[C@@H]6[C@H](C5)[C@H]6CN5CCN6c7cc(-c8ccccc8O)nnc7NC[C@H]6C5)C4)cc3C2=O)C(=O)N1 (stereo partly drawn)
Found: 75 to 85%

Lookup: Please supply the value of reported Dmax for the item O=C1CCC(N2C(=O)c3cccc(NCCCN4CCC(N5CCN6c7cc(-c8ccccc8O)nnc7NC[C@H]6C5)CC4)c3C2=O)C(=O)N1 (stereo partly drawn)
Found: > 85%

Lookup: Please supply the value of reported Dmax for the item C[C@@H]1C[C@H](CN2C[C@@H]3[C@H](C2)[C@H]3CN2CCN3c4cc(-c5ccccc5O)nnc4NC[C@H]3C2)CCN1c1ccc2c(c1)C(=O)N(C1CCC(=O)NC1=O)C2=O (stereo partly drawn)
Found: 75 to 85%

Lookup: Please supply the value of reported Dmax for the item O=C1CCC(N2C(=O)c3ccc(N4CCC(O)(CN5CCC(CN6CCN7c8cc(-c9ccccc9O)nnc8NC[C@H]7C6)CC5)CC4)cc3C2=O)C(=O)N1 (stereo partly drawn)
Found: 75 to 85%

Lookup: Please supply the value of reported Dmax for the item O=C1CCC(N2Cc3ccc(N4CCOC(CN5CCC(C(=O)N6CCN7c8cc(-c9ccccc9O)nnc8NC[C@H]7C6)CC5)C4)cc3C2=O)C(=O)N1 (stereo partly drawn)
Found: 50 to 75%

Lookup: Please supply the value of reported Dmax for the item CC1(CN2CCC(CN3CCN4c5cc(-c6ccccc6O)nnc5NC[C@H]4C3)CC2)CCN(c2ccc3c(c2)C(=O)N(C2CCC(=O)NC2=O)C3=O)CC1 (stereo partly drawn)
Found: 75 to 85%

Lookup: Please supply the value of reported Dmax for the item O=C1CCC(N2C(=O)c3ccc(N4CC(CCN5CCC(CN6CCN7c8cc(-c9ccccc9O)nnc8NC[C@H]7C6)CC5)C4)cc3C2=O)C(=O)N1 (stereo partly drawn)
Found: 75 to 85%

Lookup: Please supply the value of reported Dmax for the item O=C1CCC(N2C(=O)c3ccc(N4CC(CN5CCN(C(=O)N6CCN7c8cc(-c9ccccc9O)nnc8NC[C@H]7C6)CC5)C4)cc3C2=O)C(=O)N1 (stereo partly drawn)
Found: 50 to 75%

Lookup: Please supply the value of reported Dmax for the item CN(CCCCN1CCC(CN2CCN3c4cc(-c5ccccc5O)nnc4NC[C@H]3C2)CC1)c1ccc2c(c1)C(=O)N(C1CCC(=O)NC1=O)C2=O (stereo partly drawn)
Found: 50 to 75%
